Provenance of the data: patent US20210139581A1

# assayed-target: human CD33 on primary human monocyte-derived dendritic cells (human, UniProt P20138 18-364)
# Sequence (P20138 18-364): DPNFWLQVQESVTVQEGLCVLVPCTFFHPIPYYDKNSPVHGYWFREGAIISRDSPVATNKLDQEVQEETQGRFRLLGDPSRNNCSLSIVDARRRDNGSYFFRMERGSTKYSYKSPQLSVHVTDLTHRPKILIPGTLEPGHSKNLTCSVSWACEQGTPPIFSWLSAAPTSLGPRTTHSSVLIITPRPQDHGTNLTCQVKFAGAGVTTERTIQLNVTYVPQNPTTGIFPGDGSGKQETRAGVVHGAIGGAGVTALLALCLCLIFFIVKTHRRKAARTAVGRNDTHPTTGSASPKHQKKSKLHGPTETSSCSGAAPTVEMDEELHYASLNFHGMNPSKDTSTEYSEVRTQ
# assay-method-text: cell-based or functional assay
metric-name: Receptor downregulation (EC50) (nM)
Give bare numbers, in nM.

Just so you know, measured Receptor downregulation (EC50) for AB-14.8 (antibody, V domains shown) VH: QVQLVQSGAEVKKPGASVKVSCKASGYTFTDYNYHWVRQAPGQGLEWIGFIYPSNGITGYAQKFQGRVTMTVDTSTSTVYMELSSLRSEDTAVYYCARSDVDYFDYWGQGTLVTVSS VL: DIQMTQSPSSLPASVGDRVTITCRASQSVGTSTYSYMHWYQQKPGKAPKLLIKYASNLGSGVPSRFSGSGSGTDFTLTISSLQPEDFATYYCQHSWEIPLTFGQGTKLEIK came out at 0.0234
